Numbers sourced from patent US20080096894A1.

- System: S. maltophilia
- Test Protocol: MIC, agar dilution, multipoint inoculator
- Type: cell-based
- Test Context: S. maltophilia NCTC 10257; upper value of MIC reading
Assay Metric: MIC (µg/mL)

INSERT INTO measurements (query_smiles, measurement_unit, recorded_measurement) VALUES
  ('O=[N+]([O-])c1cc(Br)cc(C=NNc2ccccn2)c1O', 'µg/mL', 128),
  ('NC(=NN=Cc1ccc(O)c(O)c1)c1ccc2ccccc2n1', 'µg/mL', 256),
  ('Oc1cc(O)c(C=NNc2ccccn2)c(O)c1', 'µg/mL', 128);

---

- System: S. maltophilia
- Test Protocol: MIC, agar dilution, multipoint inoculator
- Format: cell-based
- Test Context: S. maltophilia NCTC 10257; upper value of MIC reading
Overview of recorded MIC for various molecules
Assay Metric: MIC (mg/L)

INSERT INTO results (molecule, measured_on, assay_metric, recorded_measurement) VALUES
  ('NC(=NN=Cc1c(O)ccc2ccccc12)c1cccnc1 [Compound 3PYdb]', 'S. maltophilia', 'MIC', 266),
  ('CCOc1ccccc1C=NN=C(N)c1cccnc1 [Compound 3PYay]', 'S. maltophilia', 'MIC', 256),
  ('O=Cc1cc([N+](=O)[O-])ccc1O [cj]', 'S. maltophilia', 'MIC', 256),
  ('NC(=NN=Cc1c(O)ccc2ccccc12)c1ccncc1 [Compound 4PYdb]', 'S. maltophilia', 'MIC', 128),
  ('CN(C)CCCOc1ccc(C=NN=C(N)c2ccc3ccccc3n2)cc1 [QNds]', 'S. maltophilia', 'MIC', 256);

---

- Test system: P. auriginosa
- Test Protocol: MIC, agar dilution, multipoint inoculator
- Format: cell-based, Pseudomonas aeruginosa
- Test Context: P. auriginosa NCTC 6749; upper value of MIC reading
Overview of recorded MIC for various molecules
Assay Metric: MIC

INSERT INTO assay_data (query_smiles, assay_metric, recorded_measurement) VALUES
  ('Oc1cc(O)c(C=NNc2ccccn2)c(O)c1', 'MIC', '256 µg/mL'),
  ('O=Cc1cc([N+](=O)[O-])ccc1O', 'MIC', '256 µg/mL'),
  ('CCOc1ccccc1C=NN=C(N)c1cccnc1', 'MIC', '128 µg/mL'),
  ('NC(=NN=Cc1c(O)ccc2ccccc12)c1cccnc1', 'MIC', '256 µg/mL'),
  ('O=[N+]([O-])c1cc(Br)cc(C=NNc2ccccn2)c1O', 'MIC', '128 µg/mL'),
  ('NC(=NN=Cc1ccc(O)c(O)c1)c1ccc2ccccc2n1', 'MIC', '256 µg/mL');

---

- Test system: Enterococcus faecium
- Test Protocol: MIC, doubling dilution in 96-well microtitre plate
- Format: cell-based
- Test Context: Enterococcus faecium ATCC 10541
Overview of recorded MIC for various compounds
Assay Metric: MIC

INSERT INTO results (compound, assay_metric, recorded_measurement) VALUES
  ('NC(=NN=Cc1c2ccccc2cc2ccccc12)c1cc[n+]([O-])cc1', 'MIC', '64 to 128 mg/L'),
  ('NC(=NN=Cc1cccc2ccccc12)c1cc[n+]([O-])cc1', 'MIC', '16 to 32 mg/L'),
  ('CC(C)(C)c1cc(C=NN=C(N)c2cc[n+]([O-])cc2)c(O)c(C(C)(C)C)c1', 'MIC', '32 to 64 mg/L'),
  ('CC(C)(C)c1cc(C=NN=C(N)c2cc[n+]([O-])cc2)cc(C(C)(C)C)c1', 'MIC', '32 to 64 mg/L'),
  ('CC(=O)Nc1ccc(C=NN=C(N)c2cc[n+]([O-])cc2)cc1', 'MIC', '16 to 32 mg/L'),
  ('NC(=NN=Cc1ccc([N+](=O)[O-])o1)c1cc[n+]([O-])cc1 (mixture of isomers)', 'MIC', '8 to 16 mg/L'),
  ('CC(C)(C)c1ccc(C=NN=C(N)c2cc[n+]([O-])cc2)cc1', 'MIC', '16 to 32 mg/L');

---

- System: MRSA
- Test Protocol: MIC, agar dilution, multipoint inoculator
- Assay type: cell-based, methicillin-resistant Staphylococcus aureus
- Test Context: Staphylococcus aureus, 18 h, MRSA Isolate 7; upper value of MIC reading; read-out: MIC
Overview of recorded MIC for various molecules
Assay Metric: MIC

INSERT INTO results (molecule, recorded_measurement) VALUES
  ('N/C(=N\N=C\c1c2ccccc2cc2ccccc12)c1ccncc1', '64 mg/L'),
  ('N/C(=N\N=C\c1ccccc1Sc1ccc(Cl)cc1)c1ccncc1', '64 mg/L'),
  ('CCC(C)(C)c1ccc(/C=N/N=C(\N)c2cccnc2)cc1', '64 mg/L'),
  ('Cc1onc(-c2c(F)cccc2Cl)c1C(=O)N[C@@H]1C(=O)N2[C@@H]1SC(C)(C)[C@@H]2C(=O)O [Fluclox., Flucloxacillin, reference compound]', '0.25 mg/L');

---

- System: Streptococcus bovis NCTC 11436
- Test Protocol: MIC, doubling dilution in 96-well microtitre plate
- Format: cell-based
Overview of recorded MIC for various molecules
Assay Metric: MIC

INSERT INTO assay_data (molecule, assay_metric, recorded_measurement) VALUES
  ('NC(=NN=Cc1ccc([N+](=O)[O-])o1)c1cc[n+]([O-])cc1 (mixture of isomers)', 'MIC', '4 to 8 µg/mL'),
  ('CC(C)(C)c1cc(C=NN=C(N)c2cc[n+]([O-])cc2)cc(C(C)(C)C)c1', 'MIC', '32 to 64 µg/mL'),
  ('CC(C)(C)c1cc(C=NN=C(N)c2cc[n+]([O-])cc2)c(O)c(C(C)(C)C)c1', 'MIC', '64 to 128 µg/mL'),
  ('CC(C)(C)c1cccc(C=NN=C(N)c2cc[n+]([O-])cc2)c1O', 'MIC', '32 to 64 µg/mL');

---

- Test system: E. faecalis
- Test Protocol: MIC, agar dilution, multipoint inoculator
- Format: cell-based
- Test Context: E. faecalis Isolate 3; upper value of MIC reading
- Method: This activity was measured using a multipoint inoculator method as follows. The MIC for each compound was measured using an agar dilution method (Onda, H., et al., Int. J. Antimicrob. Agents. 18, 263 (2001)) (Mueller Hinton agar) by means of a multipoint inoculator delivering 10^4 colony forming units per spot.
Assay Metric: MIC (µg/mL)

INSERT INTO assay_data (compound, measured_on, assay_metric, recorded_measurement) VALUES
  ('CN(C)CCCOc1ccc(C=NN=C(N)c2ccc3ccccc3n2)cc1 [QNds]', 'E. faecalis', 'MIC', 128),
  ('NC(=NN=Cc1cc([N+](=O)[O-])ccc1O)c1cnccn1 [PZcj]', 'E. faecalis', 'MIC', 256),
  ('NC(=NN=Cc1cc(O)c(O)cc1O)c1ccc2ccccc2n1 [QNcc]', 'E. faecalis', 'MIC', 256),
  ('NC(=NN=Cc1ccc(O)c(O)c1)c1ccc2ccccc2n1 [QNca]', 'E. faecalis', 'MIC', 256),
  ('Oc1cc(O)c(C=NNc2ccccn2)c(O)c1 [HDcd]', 'E. faecalis', 'MIC', 128),
  ('NC(=NN=Cc1cc([N+](=O)[O-])ccc1O)c1ccccn1 [Compound 2PYcj]', 'E. faecalis', 'MIC', 256),
  ('NC(=NN=Cc1c(O)ccc2ccccc12)c1ccncc1 [Compound 4PYdb]', 'E. faecalis', 'MIC', 256),
  ('NC(=NN=Cc1ccc(O)c(O)c1O)c1cnccn1 [PZcb]', 'E. faecalis', 'MIC', 256),
  ('O=[N+]([O-])c1cc(Br)cc(C=NNc2ccccn2)c1O [HDcl]', 'E. faecalis', 'MIC', 16),
  ('NC(=NN=Cc1cc(Br)cc([N+](=O)[O-])c1O)c1ccc2ccccc2n1 [QNcl]', 'E. faecalis', 'MIC', 256);

---

Overview of recorded MIC for various compounds
- Test system: MRSA
- Test Protocol: MIC, agar dilution, multipoint inoculator
- Type: cell-based, methicillin-resistant Staphylococcus aureus
- Test Context: Staphylococcus aureus, 18 h, MRSA Isolate 7; upper value of MIC reading; read-out: MIC
Assay Metric: MIC

INSERT INTO results (compound, recorded_measurement) VALUES
  ('CC1(C)S[C@@H]2[C@H](NC(=O)[C@H](N)c3ccccc3)C(=O)N2[C@H]1C(=O)O [Amp., Ampicillin, reference compound]', '8 µg/mL'),
  ('CC(C)(C)c1cc(/C=N/N=C(\N)c2ccncc2)c(O)c(C(C)(C)C)c1 [Compound 4PYcq]', '4 µg/mL'),
  ('CCC(C)(C)c1ccc(/C=N/N=C(\N)c2ccncc2)cc1 [Compound 4PYaf]', '64 µg/mL');

---

- Test system: MRSA
- Test Protocol: MIC, agar dilution, multipoint inoculator
- Type: cell-based, methicillin-resistant Staphylococcus aureus
- Test Context: MRSA Isolate 4; upper value of MIC reading; in µg/mL
Counter-ions that a name gives are not always drawn.
Assay Metric: MIC

INSERT INTO measurements (compound, assay_metric, recorded_measurement) VALUES
  ('O=[N+]([O-])c1cc(Br)cc(C=NNc2ccccn2)c1O [HDcl]', 'MIC', 128),
  ('NC(=NN=Cc1cc([N+](=O)[O-])ccc1O)c1ccccn1 [Compound 2PYcj]', 'MIC', 8),
  ('NC(=NN=Cc1ccc(O)c(O)c1O)c1cnccn1 [PZcb]', 'MIC', 256),
  ('NC(=NN=Cc1cc(O)c(O)cc1O)c1cccnc1 [Compound 3PYcc]', 'MIC', 256),
  ('CCOc1ccccc1C=NN=C(N)c1cccnc1 [Compound 3PYay]', 'MIC', 128),
  ('NC(=NN=Cc1c(O)ccc2ccccc12)c1ccncc1 [Compound 4PYdb]', 'MIC', 256),
  ('CN[C@H](CC(C)C)C(=O)N[C@H]1C(=O)N[C@@H](CC(N)=O)C(=O)N[C@H]2C(=O)N[C@H]3C(=O)N[C@H](C(=O)N[C@H](C(=O)O)c4cc(O)cc(O)c4-c4cc3ccc4O)[C@H](O)c3ccc(c(Cl)c3)Oc3cc2cc(c3O[C@@H]2O[C@H](CO)[C@@H](O)[C@H](O)[C@H]2O[C@H]2C[C@](C)(N)[C@H](O)[C@H](C)O2)Oc2ccc(cc2Cl)[C@H]1O [Vanc., Vancomycin hydrochloride, reference compound]', 'MIC', 0.12),
  ('O=Cc1cc(Br)cc([N+](=O)[O-])c1O [cl]', 'MIC', 16),
  ('NC(=NN=Cc1c(O)ccc2ccccc12)c1cccnc1 [Compound 3PYdb]', 'MIC', 256);
